Target: UniProtKB P58681
Sequence (P58681 27-1050): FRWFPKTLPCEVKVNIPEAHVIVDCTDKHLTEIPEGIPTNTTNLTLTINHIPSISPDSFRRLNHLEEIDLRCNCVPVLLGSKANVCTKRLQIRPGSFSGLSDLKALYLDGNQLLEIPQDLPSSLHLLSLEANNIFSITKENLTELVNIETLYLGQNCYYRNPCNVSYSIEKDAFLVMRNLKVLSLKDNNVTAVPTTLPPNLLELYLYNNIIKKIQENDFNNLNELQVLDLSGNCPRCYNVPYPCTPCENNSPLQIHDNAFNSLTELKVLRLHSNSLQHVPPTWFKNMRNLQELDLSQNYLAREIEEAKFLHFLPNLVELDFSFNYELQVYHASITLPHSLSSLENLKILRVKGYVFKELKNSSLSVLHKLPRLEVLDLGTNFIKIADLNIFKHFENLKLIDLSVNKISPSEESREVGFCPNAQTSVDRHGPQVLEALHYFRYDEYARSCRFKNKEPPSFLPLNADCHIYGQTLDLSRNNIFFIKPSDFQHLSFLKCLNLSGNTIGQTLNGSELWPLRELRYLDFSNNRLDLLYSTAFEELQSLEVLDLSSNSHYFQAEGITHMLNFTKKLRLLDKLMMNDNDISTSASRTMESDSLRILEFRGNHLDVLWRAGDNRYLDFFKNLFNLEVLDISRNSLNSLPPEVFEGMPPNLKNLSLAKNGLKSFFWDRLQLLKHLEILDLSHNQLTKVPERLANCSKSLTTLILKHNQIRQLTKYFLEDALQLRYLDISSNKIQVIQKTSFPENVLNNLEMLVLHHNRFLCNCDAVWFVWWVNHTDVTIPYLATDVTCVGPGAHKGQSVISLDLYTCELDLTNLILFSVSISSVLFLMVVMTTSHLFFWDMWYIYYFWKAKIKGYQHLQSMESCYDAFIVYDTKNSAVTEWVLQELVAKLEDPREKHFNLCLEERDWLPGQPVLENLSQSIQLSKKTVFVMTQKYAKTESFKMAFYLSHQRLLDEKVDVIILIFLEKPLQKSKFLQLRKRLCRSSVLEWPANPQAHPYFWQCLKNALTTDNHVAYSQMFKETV
Assay: Short-term in vivo (STIV) assay: oral dosing, R848 s.c., plasma IL-6
Design: female BALB/c mice (Jackson Labs, Bar Harbor, Me.) were dosed by oral gavage; tissue Jackson Labs; host or cells: living female BALB/c mice; plasma IL-6 after s.c. R848
Conditions: 3 h; 33 mg/kg
Description: Figure Legend: Female BALB/c mice were dosed by oral gavage with Vehicle alone (0.5% aqueous methyl-cellulose) or compound formulated in Vehicle at 33 mg/kg, 100 mg/kg or 300 mg/kg. […] (FIG. 1A). Short-term in vivo (STIV) assay: To assess compound potency in vivo against mouse TLR7, a short-term in vivo (STIV) assay was utilized. […] The plasma IL-6 level following R848 stimulation was then measured by ELISA to assess compound potency and duration-of-action. […]
quantity: % Suppression vs. Vehicle

compound="C[C@@H]1CN(c2ccc(C#N)c3ncccc23)C[C@H](CNC2CCCCC2)O1 [ER-886611]" subjectoftest="UniProtKB P58681" measuredvalue=90%

# batch size: 3; output % Suppression vs. Vehicle per entry
1. CC1CN(c2ccc(C#N)c3ncccc23)CC(CN2CCCC2CO)O1 (centres unmarked) [ER-886814]
2. CCCN1CCN(C[C@H]2CN(c3ccc(C#N)c4ncccc34)C[C@@H](C)O2)CC1 [ER-887724]
3. CC1CN(c2ccc(C#N)c3ncccc23)CC(CN2CCNC(C)C2C)O1 (centres unmarked) [ER-887137]

["93%", "99%", "100%"]

Please supply % Suppression vs. Vehicle for each of the following items, keeping them in order.
1. COc1cccnc1NC[C@H]1CN(c2ccc(C#N)c3ncccc23)C[C@@H](C)O1 [ER-886948]
2. C[C@@H]1CN(c2ccc(C#N)c3ncccc23)C[C@H](CN2CC[C@H](N3CCCC3)C2)O1 [ER-893881]

46%
95%

Each of the following entries comes with a recorded value; kindly state % Suppression vs. Vehicle for each.
1. CC(C)C(=O)NC1CN(C[C@H]2CN(c3ccc(C#N)c4ncccc34)C[C@@H](C)O2)C1 [ER-894206]
2. CC1CN(c2ccc(C#N)c3ncccc23)CC(CN2CCC(N(C)C)CC2)O1 (centres unmarked) [ER-887725]

["96%", "99%"]

State recorded % Suppression vs. Vehicle for all listed compounds.
1. C[C@@H]1CN(c2ccc(C#N)c3ncccc23)C[C@H](CN2CCC(O)CC2)O1 [ER-886953]
2. CC1CN(c2ccc(C#N)c3ncccc23)CC(CN2CCC(N3CCCCC3)C2)O1.Cl.Cl (centres unmarked) [ER-890311]
3. C[C@@H]1CN(c2ccc(C#N)c3ncccc23)C[C@H](CN2CC[C@H](O)C2)O1 [ER-886820]
4. CC(=O)NC1CCN(CC2CN(c3ccc(C#N)c4ncccc34)CC(C)O2)CC1 (centres unmarked) [ER-888288]

1. 99%
2. 88%
3. 93%
4. 100%

Your task in this section: give % Suppression vs. Vehicle for each listed record.
1. CC1CN(c2ccc(C#N)c3ncccc23)CC(CN2CC(N3CCCCC3)C2)O1 (centres unmarked) [ER-889470]
2. CC1CN(c2ccc(C#N)c3ncccc23)CC(CN2CC(N3CCCC3)C2)O1 (centres unmarked) [ER-889469]

100%
100%
